# Test system: RARg:RXRa (NR concentration 270 nM, RXRa partner concentration 90 nM)
# assay.name: PBM binding z-score (relative to random genomic background probes); higher = stronger binding; sequences stand for … in GC…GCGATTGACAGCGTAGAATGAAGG
metric: PBM binding z-score
Reply with just the number.

Use these answered entries as a reference point.
TCTCGCAGGCCAGAGGGTCACTCAAGAGGTACGG : 2.79
CGTCCAAGGTCAGAGAGGTCAGTGAGTGCCGAGT : 6.35
TCGAGTAGGTTAGGGACATTCAGAATGGCGTCGA : 0.15
GCATATAGGTAAGACAAGGTGAAAGTCCGATTGT : 0.376
ACCTCTAGGTAAAGATAGTTCAGTGAATGCAAAT : 0.4
TCATATACGTAATACAGGTGAAAGTCGGCATCTA : 0.758
CAAACTAGGTCAAGGTCAAAGTTGGTTTGTGCCA : 6.1
ATCGAAAGGTCGAAGCTGAGTATACCCACCCGAA : 3.83

Ask | Lab note: need PBM binding z-score for "GCTAGTTGGTCAGTAAAACGTCACACACCGGTCG" on RARg:RXRa (NR concentration 270 nM, RXRa partner concentration 90 nM), anyone have it?
Reply | -0.139

Ask | Lab note: need PBM binding z-score for "CCTATTGGGCCACGAAAGGTCATTGATTCAGTGA" on RARg:RXRa (NR concentration 270 nM, RXRa partner concentration 90 nM), anyone have it?
Reply | 4.95

Ask | Lab note: need PBM binding z-score for "TCGAGTAGGTTAGTGGGGGCATTCAGCCAACATA" on RARg:RXRa (NR concentration 270 nM, RXRa partner concentration 90 nM), anyone have it?
Reply | 1.55

Ask | Lab note: need PBM binding z-score for "TCTTGTAGATCAATAGAGGTGAAGAAAGTGCGCT" on RARg:RXRa (NR concentration 270 nM, RXRa partner concentration 90 nM), anyone have it?
Reply | 0.365

Ask | Lab note: need PBM binding z-score for "CGTCCAAGGGCAGAGAGGTCAGTGAATGCCGAGT" on RARg:RXRa (NR concentration 270 nM, RXRa partner concentration 90 nM), anyone have it?
Reply | 3.5

Ask | Lab note: need PBM binding z-score for "ACTCGGAGGACAAAAGTCAGAGCTACGCCAGTGA" on RARg:RXRa (NR concentration 270 nM, RXRa partner concentration 90 nM), anyone have it?
Reply | 0.411

Ask | Lab note: need PBM binding z-score for "ACTTACGGGTCAACCAGGTTATAGCACGCGTATA" on RARg:RXRa (NR concentration 270 nM, RXRa partner concentration 90 nM), anyone have it?
Reply | 5.74

Ask | Lab note: need PBM binding z-score for "CATACTGGGTCAGCTAGGCCAGAGTAGGGACGGC" on RARg:RXRa (NR concentration 270 nM, RXRa partner concentration 90 nM), anyone have it?
Reply | 2.65

====

# System: PPARa:RXRa (NR concentration 270 nM, RXRa partner concentration 90 nM)
# assay.name: PBM binding z-score (relative to random genomic background probes); higher = stronger binding; sequences stand for … in GC…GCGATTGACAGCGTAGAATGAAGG
Mark TRUE for reported PBM binding z-score of 3 or greater; mark FALSE for anything smaller.

CCTACTGGGCCAAAGGTCAATGATTCCAATGCTC : TRUE
AGAATGAGGTTACCAAAGACCAGGGAAACGCTTG : TRUE
TCATATAGGTAAAGGTGAAGGTCGAACGATATGA : TRUE
CTTCCAAGGTCAGAGAGGTCAGTGAATGCCGAGT : TRUE
GGAACGAGGGCAAAGCTGATAGCATCTGTCGACG : FALSE

Ask | Decide: is the reported value of PBM binding z-score for "CCTCGGAGTACAACAGGAGGTCAGAGCTGCCAGA" equal to or greater than 3?
Reply | FALSE
